# Test system: 422866-222-R5-J1-PDC spheroids with HUVEC/MSC, viability;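 also: spheroids exposed to compounds for seven days before reading; percent viability relative to DMSO vehicle control taken as 100%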
# protocol summary: Anticancer human tumor 422866-222-R5-J1-PDC patient-derived pancreatic adenocarcinoma cell line growth inhibition [GQUAD]
# protocol conditions: second compound 0.0316 µM; first compound 3.16 µM; stronger effect = lower value
Below, each entry is listed alongside its reported viability, T/C.
Your answer should be a plain number; it is taken to be in %.

The following compounds have reported results that may help.
compound	reported endpoint	display unit	readout value
CC(C)n1c(=O)n(C)c2cnc3cc(F)c(-c4ccc(OCCCN5CCCCC5)nc4)cc3c21 + Cc1cnc(CNC(=O)c2c(=O)c3ccc(N4CCCN(C)CC4)nc3n3c2sc2ccccc23)cn1	viability, T/C	%	76.7
C=CC(=O)N1CCN(c2nc(=O)n(-c3c(C)ccnc3C(C)C)c3nc(-c4c(O)cccc4F)c(F)cc23)C(C)C1 (stereo not drawn) + Cc1cnc(CNC(=O)c2c(=O)c3ccc(N4CCCN(C)CC4)nc3n3c2sc2ccccc23)cn1	viability, T/C	%	33.4

Name the recorded viability, T/C for COc1cc(C2c3cc4c(cc3C(OC3OC5COC(C)OC5C(O)C3O)C3COC(=O)C23)OCO4)cc(OC)c1O (stereo not drawn) + Cc1cnc(CNC(=O)c2c(=O)c3ccc(N4CCCN(C)CC4)nc3n3c2sc2ccccc23)cn1 . 53.5
